# key: entry, value: log10 Kd
B1: GFP aptamer (parent)
chain: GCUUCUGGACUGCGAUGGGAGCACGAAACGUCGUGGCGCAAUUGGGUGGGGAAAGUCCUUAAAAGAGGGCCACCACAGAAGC

Variants of: B1
Test: HiTS-RAP
Conditions: with EGFP
Please be aware that the numbers have been log10-transformed from Kd in nM.

Solved cases below.
Given the variant GCUUCUGGACUGCGAUGGGAGCGCGAAACGUCGCGGCGCAAUUGGGUGGGGAAAGUCCUUAAAAGAGGGCCACCACAGAAGC [A23G U34C] , what is its reported log10 Kd? 0.09

What value of measured log10 Kd is listed for GCUUCUGGACUGCGAUGGGAGCACGAAACGUCGCGGCGCAGUUGGGUGGGGAAAGUCCUUAAAAGAGGGCCACCACAGAAGC [U34C A41G] ? 0.44

Record request: log10 Kd value, item GCUUCUGGACUGCAAUGGGAGCACGAAACGUUGUGGCGCAAUUGGGUGGGGAAAGUCCUUAAAAGAGGGCCACCACAGAAGC [G14A C32U] 1.19

For GCUUCUGGACUGCGAUGGGAGCACGAAACGUCGUGGCGCAAUCGGGUGGGGAAAGUCCUUAAAAGAGGGCCACCACGGAAGC [U43C A77G] , what is its reported log10 Kd? 0.72

What does the record list as log10 Kd for GCUUCUGGACUGCGAUGGGAGCACGAAACGUCGUGGCGCAAUUGGGUGGGAAAAGUCCUUAAAAGAGGGCCACCACAGAAGC [G51A] ? 0.93

More entries:
Please report the recorded log10 Kd for GCUUCUGGACUGCGAUGGGAGCACAAAACGUUGUGGCGCAAUUGGGUGGGGAAAGUCCUUAAAAGAGGGCCACCACAGAAGC [G25A C32U] . 1.13

// returns reported log10 Kd for input GCUUCUGGACUGCGAUGGGAGCACGAAACGCCGUGGCGCAACUGGGUGGGGAAAGUCCUUAAAAGAGGGCCACCACAGAAGC [U31C U42C] 1.29
